Target: NMDAR2B expressing HEK cell membranes (Homo sapiens, UniProt Q13224)
Construct: expressed in transfected cells; host or cells: HEK cells (membrane extract)
Sequence (Q13224 27-1484, other chains not shown): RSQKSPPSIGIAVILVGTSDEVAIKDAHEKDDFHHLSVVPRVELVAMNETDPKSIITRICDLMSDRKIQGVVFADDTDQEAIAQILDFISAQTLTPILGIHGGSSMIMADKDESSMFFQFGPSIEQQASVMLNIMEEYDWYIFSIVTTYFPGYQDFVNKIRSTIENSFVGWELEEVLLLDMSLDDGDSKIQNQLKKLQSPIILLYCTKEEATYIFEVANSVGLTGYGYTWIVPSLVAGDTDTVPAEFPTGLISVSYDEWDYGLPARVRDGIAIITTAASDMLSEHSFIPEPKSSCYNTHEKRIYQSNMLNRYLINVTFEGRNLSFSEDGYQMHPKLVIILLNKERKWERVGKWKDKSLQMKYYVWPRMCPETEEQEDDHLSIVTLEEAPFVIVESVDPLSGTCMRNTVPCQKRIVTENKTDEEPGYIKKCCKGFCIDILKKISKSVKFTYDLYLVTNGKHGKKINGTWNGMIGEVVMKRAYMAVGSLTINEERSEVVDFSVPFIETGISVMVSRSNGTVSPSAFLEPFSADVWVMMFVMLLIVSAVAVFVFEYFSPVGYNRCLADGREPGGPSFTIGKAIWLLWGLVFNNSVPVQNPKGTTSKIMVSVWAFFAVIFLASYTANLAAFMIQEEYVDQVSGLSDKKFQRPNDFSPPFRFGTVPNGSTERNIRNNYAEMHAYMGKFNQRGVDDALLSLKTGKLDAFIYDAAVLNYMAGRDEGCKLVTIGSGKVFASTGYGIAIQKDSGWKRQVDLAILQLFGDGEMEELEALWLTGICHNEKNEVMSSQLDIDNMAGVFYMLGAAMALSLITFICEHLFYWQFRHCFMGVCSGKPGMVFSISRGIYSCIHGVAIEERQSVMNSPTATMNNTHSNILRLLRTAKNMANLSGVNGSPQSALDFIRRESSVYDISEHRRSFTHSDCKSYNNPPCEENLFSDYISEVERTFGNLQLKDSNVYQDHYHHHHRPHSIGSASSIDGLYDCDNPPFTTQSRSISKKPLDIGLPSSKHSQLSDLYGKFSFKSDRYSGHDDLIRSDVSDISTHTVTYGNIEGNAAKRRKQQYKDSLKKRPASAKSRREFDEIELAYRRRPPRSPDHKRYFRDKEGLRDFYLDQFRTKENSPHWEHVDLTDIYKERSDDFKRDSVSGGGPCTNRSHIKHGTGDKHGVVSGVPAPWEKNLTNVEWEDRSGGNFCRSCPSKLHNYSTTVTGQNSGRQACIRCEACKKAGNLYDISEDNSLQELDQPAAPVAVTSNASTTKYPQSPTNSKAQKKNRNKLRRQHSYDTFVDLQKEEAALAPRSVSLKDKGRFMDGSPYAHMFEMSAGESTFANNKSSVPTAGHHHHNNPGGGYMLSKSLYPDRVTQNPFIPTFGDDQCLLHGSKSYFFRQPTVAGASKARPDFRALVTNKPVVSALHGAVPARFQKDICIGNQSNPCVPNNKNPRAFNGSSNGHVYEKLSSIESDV
Experiment: NMDAR agonist assay, [3H]MK-801 binding, NMDAR2B
Type: biochemical
Conditions: 50 μM glutamate; relative to 1 mM glycine
Experimental: (nonequilibrium conditions). The baseline value was determined from the best fit curve of the DPM values modeled using the GraphPad program and the log(agonist) vs. response(three parameters) algorithm was then subtracted from all points in the dataset.
readout: NMDAR2B: % maximal [3H]MK-801 binding relative to 1 mM glycine

[
  {
    "compound": "CC(C)C(=O)N1C2(CCC13CNC3=O)CNC2=O (single isomer, unassigned) [AI]",
    "reported-measurement": "− (−=0)"
  },
  {
    "compound": "CC(C)(C)OC(=O)N1C(C(N)=O)CCC12CNC2=O (single isomer, unassigned) [BF]",
    "reported-measurement": "+ (<100%=+)"
  },
  {
    "compound": "C[C@@H](O)[C@H](NC(=O)C1CCC2(CNC2=O)N1Cc1ccccc1)C(N)=O (single isomer, unassigned) [AM]",
    "reported-measurement": "+ (<100%=+)"
  },
  {
    "compound": "CC(O)C(NCC1CCC2(CNC2=O)N1)C(N)=O (single isomer, unassigned) [CN]",
    "reported-measurement": "+ (<100%=+)"
  },
  {
    "compound": "C[C@@H](O)[C@H](NC(=O)C1CCC2(CNC2=O)N1Cc1ccccc1)C(N)=O (single isomer, unassigned) [AL-1]",
    "reported-measurement": "− (−=0)"
  }
]

###

assay: Plasma stability (Rat); format: in vitro ADME
In this section, each of the compounds is paired with its reported Plasma (Rat): percent of compound remaining after 60 minutes.
readout: Plasma (Rat): percent of compound remaining after 60 minutes (%)

[
  {
    "compound": "CC(C)(C)OC(=O)N1CC2(CN(OCc3ccccc3)C2=O)CC12CN(OCc1ccccc1)C2=O (single isomer, unassigned)",
    "reported-measurement": 0
  },
  {
    "compound": "O=C1NCC12CCC1(CNC1=O)N2Cc1ccccc1 (single isomer, unassigned) [AC-1]",
    "reported-measurement": 100
  },
  {
    "compound": "O=C1NCC12CCC1(CNC1=O)N2 (single isomer, unassigned)",
    "reported-measurement": 68
  },
  {
    "compound": "CC(C)C(=O)N1C2(CCC13CNC3=O)CNC2=O (single isomer, unassigned)",
    "reported-measurement": 100
  },
  {
    "compound": "CC(C)CN1[C@]2(CC[C@]13CNC3=O)CNC2=O",
    "reported-measurement": 90
  }
]

###

target: NMDAR2A expressing HEK cell membranes (Homo sapiens, UniProt Q12879); construct: expressed in transfected cells; host or cells: HEK cells (membrane extract); assay: NMDAR agonist assay, [3H]MK-801 binding, NMDAR2A; assay type: biochemical; conditions: 50 μM glutamate; relative to 1 mM glycine
readout: NMDAR2A: % maximal [3H]MK-801 binding relative to 1 mM glycine

[
  {
    "compound": "O=C1NCC12CN(Cc1ccccc1)C1(CNC1=O)C2 (single isomer, unassigned) [DR]",
    "reported-measurement": "+ (<100%=+)"
  },
  {
    "compound": "CC(C)(C)OC(=O)N1CC2(CN(OCc3ccccc3)C2=O)CC12CN(OCc1ccccc1)C2=O (single isomer, unassigned) [AX]",
    "reported-measurement": "+ (<100%=+)"
  },
  {
    "compound": "CNC(=O)C(NCC1CCC2(CNC2=O)N1)C(C)O (single isomer, unassigned) [CR]",
    "reported-measurement": "+ (<100%=+)"
  },
  {
    "compound": "C[C@@H](O)[C@H](NC1CN(C(=O)OC(C)(C)C)C2(CNC2=O)C1)C(N)=O (single isomer, unassigned) [CG]",
    "reported-measurement": "+ (<100%=+)"
  },
  {
    "compound": "CC(C)(C)OC(=O)N1CC2(CN(OCc3ccccc3)C2=O)CC12CN(OCc1ccccc1)C2=O (single isomer, unassigned) [AV]",
    "reported-measurement": "− (−=0)"
  },
  {
    "compound": "O=C1NCC12CN(Cc1ccc(F)cc1)C1(CNC1=O)C2 (single isomer, unassigned) [DK]",
    "reported-measurement": "+ (<100%=+)"
  },
  {
    "compound": "C[C@@H](O)[C@H](NC1CN(C(=O)OC(C)(C)C)C2(CNC2=O)C1)C(N)=O (single isomer, unassigned) [CH]",
    "reported-measurement": "− (−=0)"
  },
  {
    "compound": "CC(C)(C)OC(=O)N1C(C(N)=O)CCC12CNC2=O (single isomer, unassigned) [BF]",
    "reported-measurement": "+ (<100%=+)"
  },
  {
    "compound": "O=C1NCC12CN(Cc1ccc(F)cc1)C1(CNC1=O)C2 (single isomer, unassigned) [DL]",
    "reported-measurement": "− (−=0)"
  },
  {
    "compound": "CC(C)(C)OC(=O)N1C2(CCC13CNC3=O)CNC2=O (stereo not shown) [AA-1]",
    "reported-measurement": "− (−=0)"
  },
  {
    "compound": "CN1C2(CCC13CNC3=O)CNC2=O (single isomer, unassigned) [AB-2]",
    "reported-measurement": "− (−=0)"
  },
  {
    "compound": "NC(=O)C1CCC2(CNC2=O)N1Cc1ccc(F)cc1 (single isomer, unassigned) [DH]",
    "reported-measurement": "+ (<100%=+)"
  }
]

###

molecular target: NMDAR2A expressing HEK cell membranes (Homo sapiens, UniProt Q12879); construct: expressed in transfected cells; host or cells: HEK cells (membrane extract); experiment: NMDAR agonist assay, [3H]MK-801 binding, NMDAR2A; assay type: biochemical; conditions: 50 μM glutamate; [3H]MK-801 binding; read-out: NMDAR2A: log EC50 (converted)
In this section, each of the compounds is paired with its reported EC50.
readout: EC50

[
  {
    "compound": "CC(C)CN1C(C(N)=O)CCC12CNC2=O (single isomer, unassigned) [DD]",
    "reported-measurement": "< 1 nM"
  },
  {
    "compound": "NC(=O)C1CCC2(CNC2=O)N1Cc1ccccc1 (single isomer, unassigned) [DF]",
    "reported-measurement": "< 1 nM"
  },
  {
    "compound": "CNC(=O)C(C(C)O)N(C)CC1CCC2(CN(OCc3ccccc3)C2=O)N1 (single isomer, unassigned) [CX]",
    "reported-measurement": "< 1 nM"
  }
]

###

molecular target: NMDAR2A expressing HEK cell membranes (Homo sapiens, UniProt Q05586+Q12879); construct: expressed in transfected cells; host or cells: HEK cells (membrane extract); assay: NMDAR agonist assay, [3H]MK-801 binding, NMDAR2A; assay type: biochemical; conditions: 50 μM glutamate; relative to 1 mM glycine; read-out: NMDAR2A: % maximal [3H]MK-801 binding relative to 1 mM glycine
Sequence (Q12879 23-1464, other chains not shown): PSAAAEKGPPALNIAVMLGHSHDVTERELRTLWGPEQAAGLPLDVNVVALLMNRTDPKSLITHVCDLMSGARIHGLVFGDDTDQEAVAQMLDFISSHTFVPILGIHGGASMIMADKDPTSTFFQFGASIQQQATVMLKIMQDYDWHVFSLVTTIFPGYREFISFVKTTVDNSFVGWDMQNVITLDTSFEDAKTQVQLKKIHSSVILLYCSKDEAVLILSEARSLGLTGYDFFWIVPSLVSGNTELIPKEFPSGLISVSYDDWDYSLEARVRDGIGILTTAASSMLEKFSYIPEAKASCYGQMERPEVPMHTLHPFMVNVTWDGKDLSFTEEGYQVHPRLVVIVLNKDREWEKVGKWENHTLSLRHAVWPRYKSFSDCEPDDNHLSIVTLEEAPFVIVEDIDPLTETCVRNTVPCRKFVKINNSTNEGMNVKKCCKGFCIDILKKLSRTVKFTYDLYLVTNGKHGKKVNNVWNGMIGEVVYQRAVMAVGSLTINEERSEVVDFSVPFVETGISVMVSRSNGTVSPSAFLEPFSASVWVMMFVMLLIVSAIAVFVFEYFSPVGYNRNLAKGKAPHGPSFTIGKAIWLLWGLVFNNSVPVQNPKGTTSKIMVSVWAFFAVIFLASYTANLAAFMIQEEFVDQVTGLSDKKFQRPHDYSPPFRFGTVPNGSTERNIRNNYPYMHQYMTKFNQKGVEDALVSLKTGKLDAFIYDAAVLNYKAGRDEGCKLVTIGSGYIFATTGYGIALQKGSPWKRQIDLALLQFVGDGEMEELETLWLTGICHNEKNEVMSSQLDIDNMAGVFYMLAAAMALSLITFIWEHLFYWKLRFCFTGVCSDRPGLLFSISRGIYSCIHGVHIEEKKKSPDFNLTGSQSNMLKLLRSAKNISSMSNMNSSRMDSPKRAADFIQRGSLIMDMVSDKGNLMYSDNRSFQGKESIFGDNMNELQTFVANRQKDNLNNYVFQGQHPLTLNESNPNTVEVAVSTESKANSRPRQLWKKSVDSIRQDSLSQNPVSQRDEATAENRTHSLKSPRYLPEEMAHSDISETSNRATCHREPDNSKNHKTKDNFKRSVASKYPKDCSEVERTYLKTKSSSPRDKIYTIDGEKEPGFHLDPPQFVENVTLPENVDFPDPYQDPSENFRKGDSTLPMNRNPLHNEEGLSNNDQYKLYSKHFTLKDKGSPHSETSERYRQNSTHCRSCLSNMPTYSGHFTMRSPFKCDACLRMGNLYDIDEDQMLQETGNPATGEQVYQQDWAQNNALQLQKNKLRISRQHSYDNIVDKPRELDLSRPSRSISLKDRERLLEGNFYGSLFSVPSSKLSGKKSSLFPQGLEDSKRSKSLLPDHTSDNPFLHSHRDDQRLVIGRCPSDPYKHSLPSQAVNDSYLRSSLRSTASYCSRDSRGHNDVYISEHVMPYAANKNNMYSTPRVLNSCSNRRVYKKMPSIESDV
In this section, each of the compounds is paired with its reported Emax.

[
  {
    "compound": "CC(=O)N1C(C(=O)N[C@H](C(N)=O)[C@@H](C)O)CCC12CNC2=O (stereo partly drawn)",
    "Emax": "0%"
  },
  {
    "compound": "COc1ccc(CN2CC3(C[C@H](C(N)=O)CN3CC(C)C)C2=O)cc1 (stereo partly drawn)",
    "Emax": "< 100%"
  },
  {
    "compound": "NC(=O)C1CCC2(CNC2=O)N1Cc1ccc(F)cc1 (single isomer, unassigned)",
    "Emax": "< 100%"
  }
]
